Numbers sourced from patent US20050271676A1.

Parameter: A*0201 (binding information). Scope: all listed entries.
Test system: HLA-A*0201 (Homo sapiens, UniProt P04439, D140Y/D185E/D98H/E176V/E277Q/G131W/G231S/I119V/I121R/I166T/I218V/L300P/L318F/N151K/N90K/P208A/P217A/Q86G/Q94H/R138H/R169H/T345S)
Procedure text: purified HLA class I binding assay, A*0201
Condition details: HIV A02 Super Motif Peptides with Binding Information, Table VIII; unit not given

Field: example entries. Status: answers known.
>>> print(df.to_string())
   residue_sequence  endpoint_result
0        STVQCTIIGI            0.001
1        MVEQMIIEDI           0.0002
2        DTEVIINVWA           0.0001

Alright, here's another sequence for you.
For record NVWAIIIACV the listed A*0201 (binding information) is 0.0002
